Molecular target: Muscarinic acetylcholine receptor M1 (Homo sapiens)
Sequence (whole entry): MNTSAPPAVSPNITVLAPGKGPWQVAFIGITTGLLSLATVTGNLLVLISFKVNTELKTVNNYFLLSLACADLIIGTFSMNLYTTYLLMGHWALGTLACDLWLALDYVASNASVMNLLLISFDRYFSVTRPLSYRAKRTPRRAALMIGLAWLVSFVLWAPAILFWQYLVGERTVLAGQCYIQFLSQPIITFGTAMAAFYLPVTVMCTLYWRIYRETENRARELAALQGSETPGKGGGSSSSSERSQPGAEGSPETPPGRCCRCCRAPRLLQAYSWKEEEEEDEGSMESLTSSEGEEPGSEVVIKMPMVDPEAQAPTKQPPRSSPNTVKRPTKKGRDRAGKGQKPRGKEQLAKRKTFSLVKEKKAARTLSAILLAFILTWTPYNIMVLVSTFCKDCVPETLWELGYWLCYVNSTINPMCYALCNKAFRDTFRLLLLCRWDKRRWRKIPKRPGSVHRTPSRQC
Experiment: Positive allosteric modulator activity at human muscarinic receptor subtype 1 expressed in CHO-K1 cells by calcium mobilization assay
Format: functional, cell-based
Calls of active or inactive are those of the source. No cut-off for these calls is given here.
Experimental endpoint: pEC50

>>> value_observed("COc1ccc(Cn2cc3c(=O)n(Cc4ccc(C)cc4C)nc-3c3ccccc32)c(F)c1")
"inactive"
>>> value_observed("Cc1ccc(Cn2nc3c4ccccc4n(Cc4ccccc4)cc-3c2=O)cc1")
"inactive"
>>> value_observed("Cn1cc(-c2ccc(Cn3nc4c5ccccc5[nH]cc-4c3=O)cc2)cn1")
"inactive"
